Test system: MDA-MB-435
Test: Cytotoxicity against human MDA-MB-435 cells after 3 days by MTT assay
Assay type: functional, cell-based
Conditions: MDA-MB-435, 72 h
parameterMeasured: IC50

Completed entries (count: 5):
compound	IC50
CCCCC(=O)c1c2c(nc3ccc(OC)cc13)-c1cc3c(c(=O)n1C2)COC(=O)CC3(O)CC (racemic)	0.198 µM
CCCC(=O)c1c2c(nc3ccc(OC)cc13)-c1cc3c(c(=O)n1C2)COC(=O)CC3(O)CC (racemic)	0.198 µM
CCC1(O)CC(=O)OCc2c1cc1n(c2=O)Cc2c-1nc1ccc(OC)cc1c2C(=O)c1ccco1 (racemic)	0.00218 µM
CCC1(O)CC(=O)OCc2c1cc1n(c2=O)Cc2c-1nc1ccc(OC)cc1c2C(=O)c1cccs1 (racemic)	1.61 µM
CCC1(O)CC(=O)OCc2c1cc1n(c2=O)Cc2c-1nc1ccc(OC)cc1c2C(=O)C1CC1 (racemic)	0.0482 µM

Prompt: Recorded IC50 for CCC1(O)CC(=O)OCc2c1cc1n(c2=O)Cc2c-1nc1ccc(OC)cc1c2C1CCCCC1 (racemic) with MDA-MB-435, please?
Completion: 0.0761 µM

Prompt: Would you kindly repeat that for CCC1(O)CC(=O)OCc2c1cc1n(c2=O)Cc2c-1nc1ccc(OC)cc1c2C(=O)c1ccc(Cl)cc1 (racemic) ?
Completion: 2.09 µM

Prompt: // repeat for CCC(=O)c1c2c(nc3ccc(OC)cc13)-c1cc3c(c(=O)n1C2)COC(=O)CC3(O)CC (racemic) and report
Completion: 0.0633 µM

Prompt: Thanks! And CCC1(O)CC(=O)OCc2c1cc1n(c2=O)Cc2c-1nc1ccc(OC)cc1c2C(=O)c1ccccc1 (racemic) ?
Completion: 2.21 µM

Prompt: // next record CC[C@@]1(O)C(=O)OCc2c1cc1n(c2=O)Cc2cc3c(CN(C)C)c(O)ccc3nc2-1 [TOPOTECAN]
Completion: 0.448 µM

Prompt: Would you kindly repeat that for CCCCCCC(=O)c1c2c(nc3ccc(OC)cc13)-c1cc3c(c(=O)n1C2)COC(=O)CC3(O)CC (racemic) ?
Completion: 0.133 µM

Prompt: Another compound: CCC1(O)CC(=O)OCc2c1cc1n(c2=O)Cc2c-1nc1ccc(OC)cc1c2C(=O)C1CCCCC1 (racemic)
Completion: < 0.001 µM

###

Reported pIC50 is given for each of the following molecules.
System: A549
Assay: Cytotoxicity against human A549 cells after 3 days by MTT assay
Type: functional, cell-based
Settings: A549, 72 h
Interpret pIC50 as the negative base-10 log of the concentration measured in mol/L.

molecule	experimentalResult
CC[C@@]1(O)C(=O)OCc2c1cc1n(c2=O)Cc2cc3c(CN(C)C)c(O)ccc3nc2-1	5.50
CCC1(O)CC(=O)OCc2c1cc1n(c2=O)Cc2c-1nc1ccc(OC)cc1c2C(=O)c1ccc(C(F)(F)F)cc1 (racemic)	6.20
CCC1(O)CC(=O)OCc2c1cc1n(c2=O)Cc2c-1nc1ccc(OC)cc1c2C(=O)c1cc(C)cc(C)c1 (racemic)	4.32
CCC1(O)CC(=O)OCc2c1cc1n(c2=O)Cc2c-1nc1ccc(OC)cc1c2C(=O)c1cccs1 (racemic)	6.22

Note: attention shifts to another entry.
Prompt: Quick check: pIC50 of CCC(=O)c1c2c(nc3ccc(OC)cc13)-c1cc3c(c(=O)n1C2)COC(=O)CC3(O)CC (racemic) ?
Completion: 5.05

###

Test system: MDA-MB-435
Assay: Cytotoxicity against human MDA-MB-435 cells after 3 days by MTT assay
Format: functional, cell-based
Settings: MDA-MB-435, 72 h
parameterMeasured: IC50 (nM)
State just the number; it will be interpreted in nM.

compound	parameterMeasured	readingUnit	experimentalResult
CCC1(O)CC(=O)OCc2c1cc1n(c2=O)Cc2c-1nc1ccc(OC)cc1c2C(=O)c1ccc(C(F)(F)F)cc1 (racemic)	IC50	nM	1480

Next item in the queue.
Prompt: Form field: reported IC50 of CCC1(O)CC(=O)OCc2c1cc1n(c2=O)Cc2c-1nc1ccc(OC)cc1c2C(=O)C(C)C (racemic)
Completion: 21.6

###

Test system: A549
Experiment: Cytotoxicity against human A549 cells after 3 days by MTT assay
Format: functional, cell-based
Settings: A549, 72 h
// values below are reported IC50
Could you give me the number in nM? Just the number is fine.

The cases that follow already have their IC50 on record.
compound	IC50 [nM]
CCCCC(=O)c1c2c(nc3ccc(OC)cc13)-c1cc3c(c(=O)n1C2)COC(=O)CC3(O)CC (racemic)	7030
CCC1(O)CC(=O)OCc2c1cc1n(c2=O)Cc2c-1nc1ccc(OC)cc1c2C(=O)c1ccc(Cl)cc1 (racemic)	665
CCC1(O)CC(=O)OCc2c1cc1n(c2=O)Cc2c-1nc1ccc(OC)cc1c2C(=O)c1ccccc1 (racemic)	1770
CCC1(O)CC(=O)OCc2c1cc1n(c2=O)Cc2c-1nc1ccc(OC)cc1c2C(=O)C1CCCC1 (racemic)	430

Could you now consider this next compound?
Prompt: Give the measured IC50 of CCCCCCC(=O)c1c2c(nc3ccc(OC)cc13)-c1cc3c(c(=O)n1C2)COC(=O)CC3(O)CC (racemic) .
Completion: 478

###

Biological target: UniProt Q2HPH0
Sequence (Q2HPH0 as listed by the source): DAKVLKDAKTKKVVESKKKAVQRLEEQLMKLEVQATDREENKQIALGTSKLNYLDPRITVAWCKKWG
Test: Inhibition of calf thymus topoisomerase 1-mediated relaxation of supercoiled pBR322 at 10 uM after 15 mins using ethidium bromide staining by UV transilluminator analysis
The source made the active and inactive calls. The calls are words filed in the database; no cut-off is given here.
parameterMeasured: topoisomerase I inhibition (qualitative call)

compound	experimentalResult
CCC1(O)CC(=O)OCc2c1cc1n(c2=O)Cc2c-1nc1ccc(OC)cc1c2C(=O)C1CCCC1 (racemic)	Active
CCC1(O)CC(=O)OCc2c1cc1n(c2=O)Cc2c-1nc1ccc(OC)cc1c2C(=O)c1ccc(C(F)(F)F)cc1 (racemic)	Active
CCC1(O)CC(=O)OCc2c1cc1n(c2=O)Cc2c-1nc1ccc(OC)cc1c2C(=O)c1ccco1 (racemic)	Active
CCCCCCC(=O)c1c2c(nc3ccc(OC)cc13)-c1cc3c(c(=O)n1C2)COC(=O)CC3(O)CC (racemic)	Active
CCC1(O)CC(=O)OCc2c1cc1n(c2=O)Cc2c-1nc1ccc(OC)cc1c2C1CCCC1 (racemic)	Active

Prompt: Need topoisomerase I inhibition (qualitative call), item CCC1(O)CC(=O)OCc2c1cc1n(c2=O)Cc2c-1nc1ccc(OC)cc1c2C(=O)c1cccs1 (racemic)
Completion: Active

###

Tested on: MDA-MB-435
Test: Cytotoxicity against human MDA-MB-435 cells after 3 days by MTT assay
Type: functional, cell-based
Details: MDA-MB-435, 72 h
parameterMeasured: pIC50
Answer as the number alone; pIC50 is minus log10 of concentration in mol/L.

Prompt: I would be grateful if you could share the reported pIC50 for CCC1(O)CC(=O)OCc2c1cc1n(c2=O)Cc2c-1nc1ccc(OC)cc1c2C(=O)c1ccc(C)cc1 (racemic) .
Completion: 5.14

Prompt: What about CCC1(O)CC(=O)OCc2c1cc1n(c2=O)Cc2c-1nc1ccc(OC)cc1c2C(=O)c1ccc(F)cc1 (racemic) ?
Completion: 4.80

Prompt: Proceed to CCC1(O)CC(=O)OCc2c1cc1n(c2=O)Cc2c-1nc1ccc(OC)cc1c2C1CCCC1 (racemic)
Completion: 7.38

Prompt: Same for CCC1(O)CC(=O)OCc2c1cc1n(c2=O)Cc2c-1nc1ccc(OC)cc1c2C(=O)c1ccc(OC)cc1 (racemic)
Completion: 4.79

###

System: A549
Assay: Cytotoxicity against human A549 cells after 3 days by MTT assay
Assay type: functional, cell-based
Details: A549, 72 h
Kindly apply the following: YES if IC50 is less than 2 µM, NO in every other case.

compound	group
CCC1(O)CC(=O)OCc2c1cc1n(c2=O)Cc2c-1nc1ccc(OC)cc1c2C(=O)c1ccc2ccccc2c1 (racemic)	NO
CCC1(O)CC(=O)OCc2c1cc1n(c2=O)Cc2c-1nc1ccc(OC)cc1c2C(=O)c1ccc(OC)cc1 (racemic)	NO
CCCC(=O)c1c2c(nc3ccc(OC)cc13)-c1cc3c(c(=O)n1C2)COC(=O)CC3(O)CC (racemic)	NO
CCC1(O)CC(=O)OCc2c1cc1n(c2=O)Cc2c-1nc1ccc(OC)cc1c2C(=O)c1ccc(C)cc1 (racemic)	NO
CCC1(O)CC(=O)OCc2c1cc1n(c2=O)Cc2c-1nc1ccc(OC)cc1c2C1CCCCC1 (racemic)	YES
CCC1(O)CC(=O)OCc2c1cc1n(c2=O)Cc2c-1nc1ccc(OC)cc1c2C(=O)c1ccco1 (racemic)	YES
CCC1(O)CC(=O)OCc2c1cc1n(c2=O)Cc2c-1nc1ccc(OC)cc1c2C(=O)C(C)C (racemic)	NO
CCC1(O)CC(=O)OCc2c1cc1n(c2=O)Cc2c-1nc1ccc(OC)cc1c2C1CCCC1 (racemic)	YES

Prompt: # TODO verify IC50 < 2 µM strictly for this compound: CCC1(O)CC(=O)OCc2c1cc1n(c2=O)Cc2c-1nc1ccc(OC)cc1c2C(=O)C1CC1 (racemic)
Completion: NO

Prompt: Same for CCC1(O)CC(=O)OCc2c1cc1n(c2=O)Cc2c-1nc1ccc(OC)cc1c2C(=O)c1ccc(F)cc1 (racemic)
Completion: NO

Prompt: Here is the next compound: CCC1(O)CC(=O)OCc2c1cc1n(c2=O)Cc2c-1nc1ccc(OC)cc1c2C(=O)C1CCCCC1 (racemic)
Completion: YES

This collection of values is drawn from ChEMBL document CHEMBL1781993.
